# MEASUREMENT NOTES: melting temperature; melt of duplexes
# MEASUREMENT SETUP: sodium 0.0675 M; strand 1 µM
Listed below: Tm values for each entry.

[
  {
    "SUBSTANCE": "CGACGTGCTCGATGTGCTG+CAGCACATCGGGCACGTCG ((((((((.((((((((((+)))))))))).))))))))",
    "Tm, °C": 62.2
  },
  {
    "SUBSTANCE": "CGACGTGCAGGATGTGCTG+CAGCACATCGTGCACGTCG (((((((((.(((((((((+))))))))).)))))))))",
    "Tm, °C": 58.3
  },
  {
    "SUBSTANCE": "CGACGTGCGCAATGTGCTG+CAGCACATTGCGCACGTCG (((((((((((((((((((+)))))))))))))))))))",
    "Tm, °C": 67.1
  },
  {
    "SUBSTANCE": "CGACGTGCTGAATGTGCTG+CAGCACATAACGCACGTCG ((((((((...((((((((+))))))))...))))))))",
    "Tm, °C": 50
  }
]

###

# MEASUREMENT NOTES: melting temperature; melt of duplexes
# MEASUREMENT SETUP: sodium 0.0675 M; strand 1 µM
Classify as follows. Reported Tm greater than or equal to 50 °C: TRUE. Reported Tm below: FALSE.

[
  {
    "SUBSTANCE": "CGACGTGCAATATGTGCTG+CAGCACATGACGCACGTCG ((((((((...((((((((+))))))))...))))))))",
    "GROUP": "FALSE"
  },
  {
    "SUBSTANCE": "CGACGTGCGTAATGTGCTG+CAGCACATGAGGCACGTCG ((((((((.(.((((((((+)))))))).).))))))))",
    "GROUP": "TRUE"
  },
  {
    "SUBSTANCE": "CGACGTGCGTTATGTGCTG+CAGCACATATCGCACGTCG (((((((((.(((((((((+))))))))).)))))))))",
    "GROUP": "TRUE"
  },
  {
    "SUBSTANCE": "CGACGTGCAATATGTGCTG+CAGCACATGTTGCACGTCG ((((((((((.((((((((+)))))))).))))))))))",
    "GROUP": "TRUE"
  },
  {
    "SUBSTANCE": "CGACGTGCCGCATGTGCTG+CAGCACATTGTGCACGTCG ((((((((...((((((((+))))))))...))))))))",
    "GROUP": "FALSE"
  },
  {
    "SUBSTANCE": "CGACGTGCTCGATGTGCTG+CAGCACATCCTGCACGTCG ((((((((..(((((((((+)))))))))..))))))))",
    "GROUP": "TRUE"
  }
]

###

# MEASUREMENT NOTES: melting temperature; melt of duplexes
# MEASUREMENT SETUP: sodium 0.0675 M; strand 1 µM
Values of Tm strictly less than 50 °C map to Condition met, and values of at least 50 °C map to Condition not met.

[
  {
    "SUBSTANCE": "CGACGTGCCGCATGTGCTG+CAGCACATCGAGCACGTCG ((((((((...((((((((+))))))))...))))))))",
    "GROUP": "Condition not met"
  },
  {
    "SUBSTANCE": "CGACGTGCCCCATGTGCTG+CAGCACATGTAGCACGTCG ((((((((..(((((((((+)))))))))..))))))))",
    "GROUP": "Condition not met"
  },
  {
    "SUBSTANCE": "CGACGTGCCTTATGTGCTG+CAGCACATGCTGCACGTCG ((((((((...((((((((+))))))))...))))))))",
    "GROUP": "Condition met"
  }
]
